- System: HT1080 cells
- assayProcedure: In vitro assay of invasion inhibition (matrigel, BD BioCoat)
- Type: cell-based
- measurementConditions: Homo sapiens, HT-1080
reportedProperty: IC50 (µM)
Give the number; µM is assumed, so skip it.

Qu. Could you tell me which IC50 is on file for `O=C(O)CCCN1C(=O)C(=Cc2ccc(-c3ccc([N+](=O)[O-])cc3)o2)SC1=S` ?
Ans. 12

* * *

- assayProcedure: Heparin binding of compounds (heparin sepharose CL-6B beads)
- measurementConditions: compound at 5 uM
reportedProperty: Binding to heparin (5 uM) (%)
Give the number; % is assumed, so skip it.

Here are 10 compounds together with their reported answers.
[
  {
    "compound": "CCN1/C(=C/C=C/c2sc3ccc(OC)cc3[n+]2CC)Sc2ccc3ccccc3c21 [Compound 119]",
    "Binding to heparin (5 uM), %": 51
  },
  {
    "compound": "CN(C)c1ccc(/C=C/C2=[N+](C)c3ccccc3C2(C)C)cc1 [Compound 116]",
    "Binding to heparin (5 uM), %": 71
  },
  {
    "compound": "CN(C)c1ccc(/C=C/c2sc3ccc4ccccc4c3[n+]2C)cc1 [Compound 117]",
    "Binding to heparin (5 uM), %": 66
  },
  {
    "compound": "Cc1cc(N(C)C)cc2[s+]c3cc(N(C)C)cc(C)c3nc12 [Compound 112]",
    "Binding to heparin (5 uM), %": 70
  },
  {
    "compound": "CCC(/C=C1\\Sc2ccc3ccccc3c2N1CC)=C\\c1sc2ccc(-c3ccccc3)cc2[n+]1CC [Compound 120]",
    "Binding to heparin (5 uM), %": 61
  },
  {
    "compound": "CCN1C=C/C(=C/C=c2/s/c(=C\\c3sc(-c4ccccc4)c(-c4ccccc4)[n+]3CC)n(CC)c2=O)c2ccccc21 [Compound 115]",
    "Binding to heparin (5 uM), %": 66
  },
  {
    "compound": "C=CCn1c(=O)/c(=C\\C=C2/Nc3c(sc(C)c3C)N2CC)s/c1=C\\c1sc(-c2ccccc2)c(-c2ccccc2)[n+]1CC [Compound 113]",
    "Binding to heparin (5 uM), %": 73
  },
  {
    "compound": "CC[n+]1c(/C=C/Nc2ccccc2)sc2c3ccccc3sc21 [Compound 118]",
    "Binding to heparin (5 uM), %": 61
  },
  {
    "compound": "CN1\\C(=C/C=C/C=C/C=C/C2=[N+](C)c3ccccc3C2(C)C)C(C)(C)c2ccccc21 [Compound 122]",
    "Binding to heparin (5 uM), %": 65
  },
  {
    "compound": "C=CCn1c(=O)/c(=C\\C=C2\\C=CN(CC)c3ccccc32)s/c1=C\\c1sc(-c2ccccc2)c(-c2ccccc2)[n+]1CC [Compound 114]",
    "Binding to heparin (5 uM), %": 48
  }
]

Qu. Could you tell me which Binding to heparin (5 uM) is on file for CC[n+]1ccc(/C=C/C=C2\Sc3ccc4ccccc4c3N2C)c2ccccc21 [Compound 121] ?
Ans. 47

* * *

- experimentalSystem: VEGF (Homo sapiens, UniProt P15692)
- Sequence (P15692 27-191 isoform P15692-4): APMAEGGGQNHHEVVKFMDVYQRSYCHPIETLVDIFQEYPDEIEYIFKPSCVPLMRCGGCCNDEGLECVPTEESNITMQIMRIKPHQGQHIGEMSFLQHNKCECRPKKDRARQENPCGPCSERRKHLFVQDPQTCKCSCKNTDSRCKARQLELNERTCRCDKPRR
reportedProperty: IC50 (µM)
Give the number; µM is assumed, so skip it.

Here are 2 molecules together with their reported answers.
[
  {
    "structureString": "O=C(O)CCCN1C(=O)C(=Cc2ccc(-c3cccc([N+](=O)[O-])c3)o2)SC1=S",
    "IC50 / µM": 17.8
  },
  {
    "structureString": "O=C(O)CCCN1C(=O)C(=Cc2ccc(-c3ccc(Cl)cc3)o2)SC1=S",
    "IC50 / µM": 17.8
  }
]

Let us examine a further case.
Qu. Could you tell me which IC50 is on file for `O=C(O)CCCN1C(=O)C(=Cc2ccc(-c3ccc([N+](=O)[O-])cc3)o2)SC1=S` ?
Ans. 3.2

* * *

- experimentalSystem: Heparanase (Homo sapiens, UniProt Q9Y251, K307R)
- assayProcedure: Dimerization assay (H53 hetero-dimer formation, di-methyl-methylene-blue)
- Format: biochemical
- measurementConditions: H45-derived peptide, inhibition of H53 hetero-dimer formation; read-out: IC50 Heparanase
Where no end group is shown, it is not given here.
reportedProperty: IC50 (µM)
Give the number; µM is assumed, so skip it.

Qu. Could you tell me which IC50 is on file for CTWHHYYLNGRTATR [Pep-25] ?
Ans. 21

* * *

- experimentalSystem: Elastase, human neutrophil (Homo sapiens)
- Construct: Elastase, human neutrophil (Calbiochem cat.# 324681)
- Sequence (P08246 30-267): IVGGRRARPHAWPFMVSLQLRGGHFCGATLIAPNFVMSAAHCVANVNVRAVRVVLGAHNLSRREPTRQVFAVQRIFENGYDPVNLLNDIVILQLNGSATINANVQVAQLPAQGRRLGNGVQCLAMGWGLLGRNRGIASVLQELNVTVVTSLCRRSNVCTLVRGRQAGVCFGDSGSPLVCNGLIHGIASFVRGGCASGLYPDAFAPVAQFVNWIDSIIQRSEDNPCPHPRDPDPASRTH
- assayProcedure: Determination of elastase activity
- measurementConditions: Table 13
reportedProperty: IC50

Qu. Could you tell me which IC50 is on file for `O=C(Nc1ccc(Oc2cccc(Oc3ccc(NC(=O)c4ccncc4)cc3)c2)cc1)c1ccncc1` ?
Ans. 13 µM

* * *

- experimentalSystem: pro-heparanase (H60) (Homo sapiens, UniProt Q9Y251, K307R)
- Sequence (Q9Y251 36-543 K307R): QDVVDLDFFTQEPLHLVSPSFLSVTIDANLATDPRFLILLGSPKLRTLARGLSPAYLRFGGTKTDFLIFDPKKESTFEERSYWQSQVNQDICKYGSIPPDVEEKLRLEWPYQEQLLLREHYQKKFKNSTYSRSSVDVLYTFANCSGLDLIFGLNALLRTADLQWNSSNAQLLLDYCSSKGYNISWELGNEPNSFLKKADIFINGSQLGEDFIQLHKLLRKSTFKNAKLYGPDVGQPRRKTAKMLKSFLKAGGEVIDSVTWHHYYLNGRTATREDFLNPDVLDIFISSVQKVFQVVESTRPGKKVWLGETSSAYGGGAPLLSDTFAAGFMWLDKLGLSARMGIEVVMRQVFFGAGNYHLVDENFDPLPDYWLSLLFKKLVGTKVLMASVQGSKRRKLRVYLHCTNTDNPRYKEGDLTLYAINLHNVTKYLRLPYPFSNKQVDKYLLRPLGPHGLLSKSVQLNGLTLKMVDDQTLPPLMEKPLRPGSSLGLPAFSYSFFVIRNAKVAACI
- assayProcedure: Pro-heparanase activation in a cell-based assay (293 cells, DMB assay)
- measurementConditions: inhibition of pro-heparanase activation; Table 7, 5-(5-Phenyl-furan-2-ylmethylene)rhodanine analogs
Recorded pIC50 by entry
Please treat pIC50 as minus the base-10 logarithm of the molar concentration.

[
  {
    "structureString": "O=C(O)CN1C(=O)C(=Cc2ccc(-c3ccccc3Cl)o2)SC1=S",
    "experimentalSystem": "pro-heparanase (H60) (Homo sapiens, UniProt Q9Y251, K307R)",
    "reportedProperty": "pIC50",
    "obsValue": 4.49
  },
  {
    "structureString": "O=C1C(=Cc2ccc(-c3cccc([N+](=O)[O-])c3)o2)SC(=S)N1CCS(=O)(=O)O",
    "experimentalSystem": "pro-heparanase (H60) (Homo sapiens, UniProt Q9Y251, K307R)",
    "reportedProperty": "pIC50",
    "obsValue": 4.39
  },
  {
    "structureString": "O=C(O)CN1C(=O)C(=Cc2ccc(-c3cc(Cl)ccc3Cl)o2)SC1=S",
    "experimentalSystem": "pro-heparanase (H60) (Homo sapiens, UniProt Q9Y251, K307R)",
    "reportedProperty": "pIC50",
    "obsValue": 4.70
  }
]

Let us examine a further case.
Qu. pIC50 of `O=C(O)CN1C(=O)C(=Cc2ccc(-c3ccccc3[N+](=O)[O-])o2)SC1=S` on pro-heparanase (H60) (Homo sapiens, UniProt Q9Y251, K307R)?
Ans. 4.43

* * *

- experimentalSystem: pro-heparanase (H60) (Homo sapiens, UniProt Q9Y251, K307R)
- assayProcedure: Pro-heparanase activation in a cell-based assay (293 cells, DMB assay)
- measurementConditions: inhibition of pro-heparanase activation; Table 11, heparin-binding compounds
reportedProperty: IC50 (µM)
Give the number; µM is assumed, so skip it.

[
  {
    "structureString": "CC[n+]1c(/C=C/Nc2ccccc2)sc2c3ccccc3sc21",
    "experimentalSystem": "pro-heparanase (H60) (Homo sapiens, UniProt Q9Y251, K307R)",
    "unitAbbrev": "µM",
    "obsValue": 6
  },
  {
    "structureString": "CN1\\C(=C/C=C/C=C/C=C/C2=[N+](C)c3ccccc3C2(C)C)C(C)(C)c2ccccc21",
    "experimentalSystem": "pro-heparanase (H60) (Homo sapiens, UniProt Q9Y251, K307R)",
    "unitAbbrev": "µM",
    "obsValue": 16
  },
  {
    "structureString": "CN(C)c1ccc(/C=C/C2=[N+](C)c3ccccc3C2(C)C)cc1",
    "experimentalSystem": "pro-heparanase (H60) (Homo sapiens, UniProt Q9Y251, K307R)",
    "unitAbbrev": "µM",
    "obsValue": 3
  }
]

Let us examine a further case.
Qu. Could you tell me which IC50 is on file for `CC[n+]1ccc(/C=C/C=C2\Sc3ccc4ccccc4c3N2C)c2ccccc21` ?
Ans. 5.27
